Tested on: NCI-H226 lung
protocol_description: NCI-60 one-dose screen, 48 h
measurement_setup: 10 µM unless noted
The panel holds about 83,000 compounds, 20% with a hit somewhere; the sample as a whole holds those more often. The source made the active and inactive calls. How the source made its calls: active means growth percent below 10; inactive means the rest.
Outcome codes: 1 for active, 0 for inactive

[[record]]
compound = "COc1ncnc2c(-c3ccccc3)cn(COCc3ccccc3)c12"
category_label = 0

[[record]]
compound = "Nc1ccc(Cl)c([N+](=O)[O-])c1"
category_label = 0

[[record]]
compound = "Cc1cc(C)c(O)c(CNCCCNCc2cc(C)cc(C)c2O)c1"
category_label = 0

[[record]]
compound = "O=C1COCCN1c1ccc(NCc2cn(Cc3cccc4ccccc34)c3ccccc23)cc1"
category_label = 1

[[record]]
compound = "CC(C)=CCC[C@](C)(O)[C@H]1CC[C@]2(C)[C@@H]1CC[C@@H]1[C@@]3(C)CC/C(=N/O)C(C)(C)[C@@H]3CC[C@]12C"
category_label = 0

[[record]]
compound = "COc1ccc(/C=C/C(=C/c2c(O)[nH]c3cc(Br)ccc23)N=O)cc1"
category_label = 0

[[record]]
compound = "COC(=O)c1cc2c(=O)[nH]cc3c2c(n1)CCC3"
category_label = 0

[[record]]
compound = "Nc1nnc(CSc2nnc3n(Cc4ccccc4)c(=O)c4c5c(sc4n23)CCCC5)s1"
category_label = 0

[[record]]
compound = "Cn1cc(-c2nnc(-c3ccccc3)s2)c2cc(Br)cnc21"
category_label = 0

[[record]]
compound = "Cc1cc(C)c(-c2cc(O)c(-c3c(C)cc(C)cc3C)cc2O)c(C)c1"
category_label = 0

[[record]]
compound = "CCN(CC)c1ccc2cc(C(Nc3ccc(C)cc3)c3nnnn3C(C)(C)C)c(=O)oc2c1 (stereo unspecified)"
category_label = 0

[[record]]
compound = "C1=C[C@H]2O[C@@H]1c1ccc3[nH]ccc3c12"
category_label = 0

[[record]]
compound = "CCOC(=O)c1cc(C(=O)c2ccc(OC)c(OC)c2)n2ccc(-c3ccccn3)cc12"
category_label = 0

[[record]]
compound = "CC(=O)OC[C@]12CC[C@@H](C(=O)CBr)[C@@H]1[C@H]1CC[C@@H]3[C@@]4(C)CCCNC(C)(C)[C@@H]4CC[C@@]3(C)[C@]1(C)CC2"
category_label = 1

[[record]]
compound = "N#CCCc1c[nH]c2ccccc12"
category_label = 0

[[record]]
compound = "Cc1ccc2c(c1)/C(=N\\N=C/c1cn(C(C)C)c3ccccc13)C(=O)N2"
category_label = 0

[[record]]
compound = "CC1(C)CC[C@]23CC[C@]4(C)[C@H](CC[C@@H]5[C@@]6(C)C/C(=C/c7cccnc7)C(=O)C(C)(C)[C@@H]6CC[C@]54C)[C@H]2[C@H]1OC3=O"
category_label = 0

[[record]]
compound = "COc1ccc2nc3ccccc3c(NCCNCCO)c2c1"
category_label = 1

[[record]]
compound = "CCOC(=O)c1cnc2ccc(Br)cc2c1Nc1cccc(S(N)(=O)=O)c1"
category_label = 0

[[record]]
compound = "Cc1cccc(/C=C2\\N=C(c3ccccc3)N(c3ccc(S(N)(=O)=O)cc3)C2=O)c1"
category_label = 0

[[record]]
compound = "CC(C)C1=NOC(=O)C1=Cc1cn(-c2ccccc2)nc1-c1ccc(Br)cc1"
category_label = 0

